Biological target: Tyrosyl-tRNA synthetase, putative (Trypanosoma cruzi (strain CL Brener))
Sequence (whole entry): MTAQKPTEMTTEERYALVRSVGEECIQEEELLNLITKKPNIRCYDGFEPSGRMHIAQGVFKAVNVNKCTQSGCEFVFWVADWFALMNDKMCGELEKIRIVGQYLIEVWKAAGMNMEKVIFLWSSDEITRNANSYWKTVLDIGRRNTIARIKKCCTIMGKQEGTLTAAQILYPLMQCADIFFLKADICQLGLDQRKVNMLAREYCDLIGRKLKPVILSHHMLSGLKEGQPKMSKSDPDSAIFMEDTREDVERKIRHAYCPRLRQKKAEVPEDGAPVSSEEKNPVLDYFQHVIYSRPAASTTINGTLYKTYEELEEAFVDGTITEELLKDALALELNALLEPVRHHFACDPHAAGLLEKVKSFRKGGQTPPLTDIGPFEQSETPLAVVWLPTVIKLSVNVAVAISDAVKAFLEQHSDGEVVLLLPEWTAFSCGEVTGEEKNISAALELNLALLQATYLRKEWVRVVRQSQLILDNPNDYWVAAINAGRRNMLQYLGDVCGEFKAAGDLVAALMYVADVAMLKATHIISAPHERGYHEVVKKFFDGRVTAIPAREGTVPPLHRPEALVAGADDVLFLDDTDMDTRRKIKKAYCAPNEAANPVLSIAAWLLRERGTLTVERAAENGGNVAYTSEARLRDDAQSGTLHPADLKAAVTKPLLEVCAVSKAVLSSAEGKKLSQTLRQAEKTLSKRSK
Test: Trypanosoma cruzi tyrosyl tRNA synthetase (TcYRS) SOP
Type: functional
Design: scale not given: direction of the effect not stated beside the values
Conditions: 30 µM
READOUT_NAME: Percent Effect (%)
Numbers only, in %.

>  <COMPOUND>
Cc1nc2cc(C3CCN(Cc4cccc(F)c4F)C3)nn2c(O)c1C (stereo unspecified)

>  <UNIT_DESCRIPTOR>
%

>  <Percent Effect>
11.7

$$$$
>  <COMPOUND>
CCc1nnc2n1CCN(C(=O)c1ccc(-c3ccco3)nc1C)C2

>  <UNIT_DESCRIPTOR>
%

>  <Percent Effect>
16.5

$$$$
>  <COMPOUND>
CCc1nsc(NC2CCCn3nc(CC)nc32)n1 (stereo unspecified)

>  <UNIT_DESCRIPTOR>
%

>  <Percent Effect>
13.6

$$$$
>  <COMPOUND>
CC(NCc1cccnc1)c1ccc(OCC(=O)NC2CC2)cc1 (stereo unspecified)

>  <UNIT_DESCRIPTOR>
%

>  <Percent Effect>
-2.53

$$$$
>  <COMPOUND>
Cc1ccc2c(ccn2CCC(=O)O)c1

>  <UNIT_DESCRIPTOR>
%

>  <Percent Effect>
3.7

$$$$

Per the reported Tyrosyl-tRNA synthetase, putative (Trypanosoma cruzi (strain CL Brener)) data, CC1CCc2nc(O)c(C(=O)NCCN(C)C)cc2C1 (stereo unspecified) has Percent Effect of 2.56
